Each item that follows carries a reported Activity.
System: RAW264.7
Assay: Antiinflammatory activity in mouse RAW264.7 cells assessed as inhibition of LPS-induced NO production by measuring nitrite level after 24 hrs
Type: functional
// units = µM; emit number, no label

Solved entries (count: 6):
Compound | Unit abbreviation | Activity
CC(C)CC1=C(c2ccc(O)cc2)C(=O)OC1=O [ANTROCINNAMOMIN C] | µM | 21.8
CC(C)=CCOc1ccc(C2=C(CC(C)C)C(O)OC2=O)cc1 (configuration not stated) [ANTROCINNAMOMIN D] | µM | 20
CC(C)=CCOc1ccc(C2=C(CC(C)C)C(=O)N(O)C2=O)cc1 | µM | 18.3
CC(C)=CCOc1ccc(C2=C(CC(C)C)C(=O)OC2=O)cc1 | µM | 20.8
CC(C)CC1=C(c2ccc(O)cc2)C(=O)N(O)C1=O [ANTROCINNAMOMIN B] | µM | 18
CC(C)=CCOc1ccc(C2=C(CC(C)C)C(=O)NC2=O)cc1 | µM | 10.6

For the compound CC(=O)ON1C(=O)C(CC(C)C)=C(c2ccc(OCC=C(C)C)cc2)C1=O [ANTROCINNAMOMINS A] , give its measured Activity value.
12.5

These entries and their values trace back to ChEMBL document CHEMBL1157438.
